Numbers sourced from ChEMBL document CHEMBL3988442.

# SYSTEM_TESTED: Ubiquitin-activating enzyme e1, putative (Leishmania donovani (strain BPK282A1)) (UniProt E9BSI1)
# Sequence (whole entry): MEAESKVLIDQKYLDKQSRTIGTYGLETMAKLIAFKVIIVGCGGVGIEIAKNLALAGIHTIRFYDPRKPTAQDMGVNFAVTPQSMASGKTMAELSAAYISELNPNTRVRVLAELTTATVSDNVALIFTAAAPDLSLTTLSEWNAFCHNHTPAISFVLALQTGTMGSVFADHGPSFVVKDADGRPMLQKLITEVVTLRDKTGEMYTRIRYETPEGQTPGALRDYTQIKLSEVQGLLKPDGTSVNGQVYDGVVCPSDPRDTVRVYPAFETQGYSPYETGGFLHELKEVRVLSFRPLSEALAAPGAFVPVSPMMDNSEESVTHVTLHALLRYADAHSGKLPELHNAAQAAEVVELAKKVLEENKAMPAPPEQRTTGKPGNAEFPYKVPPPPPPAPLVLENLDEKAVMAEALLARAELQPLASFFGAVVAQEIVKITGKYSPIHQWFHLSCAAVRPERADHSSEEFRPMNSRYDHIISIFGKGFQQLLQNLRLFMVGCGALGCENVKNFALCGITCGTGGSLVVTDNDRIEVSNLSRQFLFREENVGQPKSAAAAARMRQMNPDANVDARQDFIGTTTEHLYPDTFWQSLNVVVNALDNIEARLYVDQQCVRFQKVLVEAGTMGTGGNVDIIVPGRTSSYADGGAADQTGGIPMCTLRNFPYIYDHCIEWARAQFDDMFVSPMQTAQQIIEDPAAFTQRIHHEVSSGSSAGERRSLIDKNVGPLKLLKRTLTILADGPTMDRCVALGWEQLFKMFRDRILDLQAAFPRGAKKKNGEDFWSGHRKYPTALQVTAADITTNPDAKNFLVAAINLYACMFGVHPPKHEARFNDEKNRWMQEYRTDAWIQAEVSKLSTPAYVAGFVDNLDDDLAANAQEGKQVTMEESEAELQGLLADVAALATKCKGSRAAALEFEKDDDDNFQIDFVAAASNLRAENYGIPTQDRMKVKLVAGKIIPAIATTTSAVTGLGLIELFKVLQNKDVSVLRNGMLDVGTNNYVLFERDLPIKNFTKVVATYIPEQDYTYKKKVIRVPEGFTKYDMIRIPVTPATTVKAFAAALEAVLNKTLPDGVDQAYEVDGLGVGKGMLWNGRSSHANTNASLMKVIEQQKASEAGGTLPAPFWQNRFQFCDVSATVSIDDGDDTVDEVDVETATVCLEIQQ
# ASSAY_INFO: Leishmania donovani Ubiquitin Activating Enzyme (LdE1)
# Format: functional
# Design: scale not given: direction of the effect not stated beside the values
# STUDY_CONDITIONS: 30 µM
Measured potencies and affinities stand elsewhere.
ENDPOINT_LABEL: Percent Effect (%)
Hi! Could you send only the number? It should be in %, unit omitted.

Give the measured Percent Effect for CC(C)c1cc(NCC(O)c2ccc(F)cc2)n2nccc2n1 (centres undefined)
2.7

Provide Percent Effect value for the following compound: Cc1noc(C)c1CCC(=O)NC(C)c1nnc2n1CCC2 (centres undefined)
16.2

Input CN(c1ccncn1)C1CC2(CCN(C(=O)c3ccsc3)C2)C1 (centres undefined) , output reported Percent Effect.
22.7

Please list Percent Effect recorded for the compound CCN(CC(=O)NC)C(=O)Cc1nc(-c2ccco2)oc1C
5.33

Identify the reported Percent Effect for the following entry. Cc1noc(C)c1CN1CCN(Cc2ccncc2)c2ncccc2C1
8

Provide one value: measured Percent Effect of Cc1ccc2c(ccn2CCC(=O)N2CCC(C(N)=O)CC2)c1
6.67

Provide measured Percent Effect value, entry: Cc1ccc2c(c1)c(CNC(=O)C1CCN(C(C)C)CC1)nn2C
5.41

For the compound CN(C)c1cc(C(=O)N2CCCC(n3cccn3)C2)ccn1 (centres undefined) , give its reported Percent Effect.
5.13

Supply reported Percent Effect belonging to this compound: O=C(c1ccncc1)N1C[C@@H]2CC[C@H](C1)N(C(=O)N1CCOCC1)C2
2.67

Annotate the compound COC1CC2(CCN(Cc3ccc4c(c3)OCO4)CC2)C1 with its measured Percent Effect.
24.7

Provide one value: measured Percent Effect of O=C(NCC1CC1)C1CSCN1S(=O)(=O)c1cccc(F)c1 (centres undefined)
8.22

Please list Percent Effect recorded for the compound COCCCN(C)C1CCCN(Cc2noc(C)n2)C1 (centres undefined)
2.7

Using the record for Cc1ccccc1OCCC(=O)N1CCCC(n2cncn2)C1 (centres undefined) , state its measured Percent Effect.
5.13

Note Percent Effect for the compound shown: CS(=O)(=O)NCC1CCCN(C(=O)c2ccc(Cl)o2)C1 (centres undefined)
7.79

Could you please provide reported Percent Effect for CCNc1nc2c(s1)C(=O)CN(C(=O)NCCc1ccccc1)C2 ? Thanks!
5.33

Please indicate Percent Effect recorded for COCC1CN(C(=O)c2ccoc2C)Cc2nccn2C1 (centres undefined)
0

Tell us which Percent Effect value is on record for COC[C@@]12CC[C@@H](N3CCOCC3)C[C@H]1CCN(c1ncccc1Cl)C2
13.5

Respond only with Percent Effect recorded for CC(C)c1ncncc1C(=O)NCCN1CCCS1(=O)=O
5.13

Return Percent Effect (reported value) for this compound: COCC1CN(S(C)(=O)=O)Cc2ncn(CC3CC3)c21 (centres undefined)
13.5

Complete the entry with Percent Effect for Cc1noc(C2CCCN(C(=O)c3ccc(Br)cc3F)C2)n1 (centres undefined)
10.4

Read off the recorded Percent Effect for CNS(=O)(=O)c1cc(C(=O)NC2CCOc3ccccc32)cc(C)c1C (centres undefined)
-2.63

Query Percent Effect for c1ccc(-c2ncc(CNC3CCc4ncnn4C3)cn2)cc1 (centres undefined)
8.86

Return value of Percent Effect for input CN1CCN(C(=O)c2ccc(=O)n(C)c2)c2ccccc21 , no commentary.
18.9

Could you please provide reported Percent Effect for c1ncn(CC2CN(Cc3csc(C4CCCC4)n3)CCO2)n1 (centres undefined) ? Thanks!
15.8

---

# SYSTEM_TESTED: Tyrosyl-tRNA synthetase, putative (Trypanosoma cruzi (strain CL Brener)) (UniProt Q4DSP6)
# Sequence (Q4DSP6 as listed by the source): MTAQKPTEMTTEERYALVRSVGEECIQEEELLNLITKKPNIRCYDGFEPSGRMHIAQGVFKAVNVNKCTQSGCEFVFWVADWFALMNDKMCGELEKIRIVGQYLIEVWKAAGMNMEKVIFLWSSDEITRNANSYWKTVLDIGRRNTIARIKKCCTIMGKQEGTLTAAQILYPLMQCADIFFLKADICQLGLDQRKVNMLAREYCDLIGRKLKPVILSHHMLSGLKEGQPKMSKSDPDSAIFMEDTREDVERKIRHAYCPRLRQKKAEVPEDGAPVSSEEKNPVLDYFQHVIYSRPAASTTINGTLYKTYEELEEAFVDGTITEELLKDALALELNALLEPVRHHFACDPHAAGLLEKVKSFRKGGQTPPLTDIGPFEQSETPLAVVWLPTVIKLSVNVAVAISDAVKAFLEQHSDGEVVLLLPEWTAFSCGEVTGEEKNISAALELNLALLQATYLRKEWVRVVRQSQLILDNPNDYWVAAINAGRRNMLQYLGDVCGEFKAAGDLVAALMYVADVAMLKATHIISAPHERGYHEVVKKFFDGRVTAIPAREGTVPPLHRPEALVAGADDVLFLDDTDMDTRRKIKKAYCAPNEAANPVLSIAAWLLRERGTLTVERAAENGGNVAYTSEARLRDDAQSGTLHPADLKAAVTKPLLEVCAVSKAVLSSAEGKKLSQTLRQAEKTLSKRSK
# ASSAY_INFO: Trypanosoma cruzi tyrosyl tRNA synthetase (TcYRS) _High Tyrosine SOP; further: in the data most compounds retested in dose-response had high values
# Assay type: functional
# Design: scale not given: direction of the effect not stated beside the values
# STUDY_CONDITIONS: 30 µM
ENDPOINT_LABEL: Percent Effect (%)
Answer in %, number only, no unit symbol.

Answer with reported Percent Effect of O=C(Cc1noc2ccccc12)N1CCCC1c1noc(C2CC2)n1 (centres undefined)
2.46

Give Percent Effect for the following molecule: CC(C)CN1C(=O)C2(CCN(Cc3nccs3)C2)c2ccccc21 (centres undefined)
3.96

Please give the documented Percent Effect of CN(C(=O)C1CSCN1S(=O)(=O)c1ccc(F)cc1)C1CC1 (centres undefined)
3.23

Give the reported value of Percent Effect for this record: Cc1cc(C(=O)NCc2ccc(N3CCCC(C(N)=O)C3)cc2)no1 (centres undefined)
2.63

In one line, give reported Percent Effect of the entry CC(C)c1cc(NCC(O)c2ccc(F)cc2)n2nccc2n1 (centres undefined) .
2.65

Entry Cc1cnc(N2CC3(CCN(C(=O)c4ccoc4)C3)C2)nc1 needs its Percent Effect filled in; supply it.
0

// fetch Percent Effect given entry CCc1nccn1C1CCCN(C(=O)c2cnn3ccc(C)nc23)C1 (centres undefined)
5.42

Output measured Percent Effect for this item: Cc1ccc(-c2cn[nH]c2C2CCCN(c3nccc(N)n3)C2)cc1 (centres undefined)
7.37

For the molecule Cc1nc(CNC(=O)NCC(O)c2ccc(F)cc2F)cs1 (centres undefined) , give its reported Percent Effect.
8.95

For CCc1nnc2n1CCN(C(=O)c1cc3cc(F)ccc3[nH]1)C2 , write its Percent Effect.
7.77

In one line, give reported Percent Effect of the entry Cc1cnn(CC2CCCN2C(=O)c2ccc3nnc(C)n3c2)c1 (centres undefined) .
-2.39

Return the recorded Percent Effect value; entry: O=S(=O)(Nc1cnn(C2CCOCC2)c1)c1ccc2c(c1)CCO2
1.06

// fetch Percent Effect given entry Cc1cccc(CS(=O)(=O)NCC(O)Cc2ccccc2)c1 (centres undefined)
5.38

# return recorded Percent Effect for entry Cc1nn(C)c2cnn(CC(=O)NCCc3ccccc3)c12
5.29

For CCN1CCC2(CC1)CC(NC(=O)N(C)C)c1cc(C)ccc12 (centres undefined) , write its Percent Effect.
8.33

Specify reported Percent Effect for the molecule shown: Cc1nn2cccnc2c1C(=O)N1CCCC(n2ccnc2)C1 (centres undefined)
3.68

Hello, please tell me recorded Percent Effect for this one: Cc1nc(N2CCN(C)CC2)ncc1C(=O)N1CCC(O)(CO)CC1
6.45

Tell me measured Percent Effect for O=C(NCCc1ccc(Cl)s1)NCc1nnc2n1CCC2 please.
4.43

Please give the documented Percent Effect of CC(O)CN1CCC(CNCc2cccc(C(N)=O)c2)CC1 (centres undefined)
8.37

Write down Percent Effect measured for item CC(NC(=O)c1cccs1)C(=O)NCc1ccccc1CN1CCCC1 (centres undefined)
12.6

Read the entry CN(CCNC(=O)c1scnc1Cl)c1ccccc1 and write its reported Percent Effect.
1.58

Return Percent Effect for the following molecule: CN1CCC(Oc2ccc(NC(=O)c3cccc(Cl)c3)cc2)CC1
-5.38

Please give measured Percent Effect of the following entry: CN(CCNC(=O)N1CCN(Cc2ccon2)CC1)c1ccccc1
3.83

Name the recorded Percent Effect of the item c1cncc(-c2ccc3c(c2)C2(CC3)CCN(c3nncs3)CC2)c1 in your answer.
14.6
